From: PubChem BioAssay

- test target: Follistatin (Homo sapiens) (UniProt P19883)
- Sequence (P19883 whole entry, looked up): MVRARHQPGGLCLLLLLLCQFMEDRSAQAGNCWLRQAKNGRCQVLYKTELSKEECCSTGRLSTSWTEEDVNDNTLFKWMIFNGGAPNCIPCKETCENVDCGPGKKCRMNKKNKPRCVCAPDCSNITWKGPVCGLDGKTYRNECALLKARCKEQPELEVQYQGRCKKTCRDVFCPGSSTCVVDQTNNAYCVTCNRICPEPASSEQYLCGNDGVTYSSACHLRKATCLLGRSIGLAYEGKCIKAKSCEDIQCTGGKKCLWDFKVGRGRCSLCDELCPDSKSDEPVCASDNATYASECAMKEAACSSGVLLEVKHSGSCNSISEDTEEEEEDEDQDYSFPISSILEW
- test protocol: follistatin binders on small-molecule microarrays, primary screen, biochemical, small-molecule microarray, 635/667 nm fluorescence (AID 1132)
- experimental setup: FST binding, 635 nm fluorescence, higher = more signal
// reported composite z-score for each item listed
# respond with the number and nothing more

>>> recorded_result("CCCCC(CC)C(O)C1C=CC2C(=O)N(c3ccccc3)C(=O)C2N1Nc1ccccc1 (stereo not drawn)")
0.858

-- ask Quick one: composite z-score for Cc1ccc(S[C@]2(C(=O)NCC(C)C)CC(=O)N(Cc3ccccc3)[C@@H]2c2ccc(CO)cc2I)cc1 ?
-- reply 1.27

-- ask What about C=CCC(OC(C)=O)[C@@H]1[C@@H](N(Cc2cccc3ccccc23)C(=O)c2ccc(C)cc2)c2cc(OCCCO)ccc2N1C(=O)Cc1ccc(OC)cc1 (stereo partly drawn) ?
-- reply 0.695

-- ask What about Cc1ccc(S[C@]2(C(=O)NCC(C)C)CC(=O)N(Cc3ccccc3Cl)[C@@H]2c2ccc(CO)cc2)cc1 ?
-- reply -1.5

-- ask What about COCCOC(=O)N1C(=O)[C@@]2(c3cc(C#CCC(C(=O)OC)C(=O)OC)ccc31)[C@H](c1ccccc1OCCO)N1[C@H](c3ccccc3)[C@H](c3ccccc3)OC(=O)[C@H]1[C@@H]2C(N)=O ?
-- reply 1.08

-- ask What about CC(C)NC(=O)[C@@]1(Cc2ccccc2I)c2ccccc2C(=O)N(Cc2ccccc2)[C@H]1c1ccc(CO)cc1 ?
-- reply 1.29

-- ask What about COCCOC(=O)N1C(=O)[C@@]2(c3cc(C#CCNC(N)=O)ccc31)[C@H](C(=O)N1CCN(c3ncccn3)CC1)[C@H]1C(=O)O[C@H](c3ccccc3)[C@H](c3ccccc3)N1[C@@H]2c1ccccc1OCCO ?
-- reply 1.37

-- ask What about CCOC(=O)C1=C[C@@H](C(C)C)N(S(=O)(=O)c2ccc(C)cc2)[C@H]1c1ccc(C(C)C)cc1 ?
-- reply 1.23

-- ask What about [N-]=[N+]=NCc1ccccc1[C@@H]1OC(c2ccc(OCCCO)cc2)=N[C@]1(Cc1ccccc1)C(=O)N1CCCCC1 ?
-- reply 1.41

* * *

- test protocol: small-molecule microarray binders of probe aNog, primary screen, biochemical, biotinylated probe, 635/667 nm fluorescence (AID 1115);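 note: probe is biotinylated aNog protein used at 0.15 µg/mL for 1 h at 4 C; z-score combines 667 nm fluorescence of each spot with its signal to noise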
- experimental setup: higher = more signal
observable: composite z-score
# respond with the number and nothing more

>>> recorded_result("O=C1C=CC(=O)[C@@H]2CC(COc3ccccc3)=C3[C@@H](CCc4ccccc4)OB(O)C[C@@H]3[C@H]12")
-0.175
>>> recorded_result("COCCOC(=O)N1C(=O)[C@@]2(c3ccccc31)[C@H](C(=O)NC[C@H](O)c1ccccc1)[C@H]1C(=O)O[C@H](c3ccccc3)[C@H](c3ccccc3)N1[C@@H]2c1ccc(OCCO)cc1")
-0.466
>>> recorded_result("CC(C)NC(=O)[C@@]1(Cc2ccccc2I)c2ccccc2C(=O)N(Cc2ccccc2)[C@H]1c1ccc(CO)cc1")
-0.422

-- ask Quick one: composite z-score for COCCOC(=O)N1C(=O)[C@@]2(c3cc(C#CCNC(N)=O)ccc31)[C@H](c1ccccc1OCCO)N1[C@H](c3ccccc3)[C@H](c3ccccc3)OC(=O)[C@H]1[C@@H]2C(N)=O ?
-- reply -0.314

-- ask What about CCOC(=O)C[C@H]1[C@H](OC(=O)c2ccccc2-c2ccccc2)[C@@H](NC(=O)c2ccc3ccccc3c2)c2cc(OCCCO)ccc2N1C(=O)c1ccc2ccccc2n1 ?
-- reply -0.364

-- ask What about CC(C)(C)OC(=O)CC[C@@]1(C(=O)NCCN2CCOCC2)N=C(c2ccc(OCCCO)cc2)O[C@@H]1c1ccccc1 ?
-- reply -0.193

-- ask What about C=CCC(OC(C)=O)[C@@H]1[C@@H](N(Cc2cccc3ccccc23)C(=O)c2cccc3ccccc23)c2cc(OCCCO)ccc2N1C(=O)c1ccc2ccccc2n1 (stereo partly drawn) ?
-- reply 0.151

-- ask What about COCCCNC(=O)[C@@]1(CCC(=O)OC(C)(C)C)N=C(c2ccc(OCCCO)cc2)O[C@H]1c1ccccc1CN=[N+]=[N-] ?
-- reply 1.36

-- ask What about CC(C)(C)N1CC=CC23O[C@@H]4C=CCOC(=O)[C@@H]4[C@H]2C(=O)N(CCCCCO)[C@@H]3C1=O (stereo partly drawn) ?
-- reply 1.03

-- ask What about CC(C)C(=C=CC[C@H](O)c1ccccc1OCCO)C[C@H](O)c1ccccn1 ?
-- reply 0.381

-- ask What about COC(=O)[C@]1(Cc2ccccc2N=[N+]=[N-])N=C(c2ccc(OCCCO)cc2)O[C@@H]1c1ccccc1N=[N+]=[N-] ?
-- reply -0.51

-- ask What about CCCCCCc1nc(CCCc2cc3c(c(CCCCCC)n2)[Si](C(C)C)(C(C)C)OC3)cc2c1[Si](C(C)C)(C(C)C)OC2 ?
-- reply -0.303

-- ask What about [N-]=[N+]=NCc1ccccc1C[C@]1(C(=O)O)N=C(c2ccc(OCCCO)cc2)O[C@H]1c1ccccc1CN=[N+]=[N-] ?
-- reply 1.16

* * *

- test protocol: CREB reporter modulators without forskolin, primary screen, cell-based, PC12, CRE-LacZ reporter, unstimulated (AID 1145)
- experimental setup: no forskolin, luminescence, 4.5 h, higher = more signal, called active from +8 up or from −8 down
Recorded z-score determines the label; the label ranges are lo = under 0.06, mid = from 0.06 up to 0.5, hi = 0.5 and over

Past entries and their recorded results:
>>> assigned_label("COCCOC(=O)N1C(=O)[C@@]2(c3cc(C#CCC(C(=O)OC)C(=O)OC)ccc31)[C@H](c1ccccc1OCCO)N1[C@H](c3ccccc3)[C@H](c3ccccc3)OC(=O)[C@H]1[C@@H]2C(N)=O")
"hi"
>>> assigned_label("C=C(CCCC)/C(=C/C[C@H](OC(C)=O)c1ccc(CO)o1)c1cnc2ccccc2c1")
"lo"
>>> assigned_label("O=c1oc(-c2ccccc2)nc2cc(Br)ccc12")
"mid"
>>> assigned_label("CC(C)C[C@@H]1NC(=O)[C@H]2C[C@@H](C(=O)NCCCCCNC(=O)CS)[C@@H](c3cccc(OCCO)c3)N2C1=O")
"mid"
>>> assigned_label("O=C1C2C=CC(C(O)c3ccc(-c4ccccc4)s3)N(n3cnnc3)C2C(=O)N1Cc1ccccc1 (stereo not given)")
"mid"
>>> assigned_label("C=C(C(=O)CC[C@H](OC(C)=O)c1ccc(OCCO)cc1)C(C)C")
"hi"
>>> assigned_label("[N-]=[N+]=NCc1ccccc1[C@@H]1OC(c2ccc(OCCCO)cc2)=N[C@]1(Cc1ccccc1)C(=O)N1CCCCC1")
"hi"
>>> assigned_label("C=CCC(OC(C)=O)[C@@H]1[C@@H](N(Cc2cccc3ccccc23)C(=O)c2ccc(C)cc2)c2cc(OCCCO)ccc2N1C(=O)Cc1ccc(OC)cc1 (stereo not given in full)")
"lo"

Next item in the queue.
-- ask Any idea which band COC(=O)[C@]1(Cc2ccccc2N=[N+]=[N-])N=C(c2ccc(OCCCO)cc2)O[C@@H]1c1ccccc1N=[N+]=[N-] is in?
-- reply hi

* * *

- test protocol: modulators of HCV replicon luciferase signal, primary screen, HCV replication inhibitor project, Huh7 cells, luciferase reporter (AID 1109);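 note: huh7 hepatoma cells harbouring a luciferase neomycin HCV replicon reporter; luciferase luminescence as measure of HCV replicon replication; test concentration not given here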
- experimental setup: 48 h, higher = more signal
Please note: t applies when z-score is -0.6 or greater, and f applies otherwise.

Past entries and their recorded results:
>>> assigned_label("Cc1ccc([C@H]2C(C(=O)O)=C[C@@H](C)N2S(=O)(=O)c2ccc(C)cc2)cc1")
"t"
>>> assigned_label("O=C1O[C@H](c2ccccc2)[C@H](c2ccccc2)N2[C@H]1[C@@H](C(=O)O)[C@]1(C(=O)Nc3ccc(C#CC4=CCCCC4)cc31)[C@H]2c1ccc(OCCO)cc1")
"f"
>>> assigned_label("COc1ccc(CCNC(=O)[C@@H]2c3ccccc3C(=O)N(Cc3ccc(OC(F)(F)F)cc3)[C@H]2c2ccc(CO)cc2)cc1")
"f"

-- ask # bool: z-score of N#Cc1ccc(NN2C(C(O)c3cccs3)C=CC3C(=O)N(c4ccccc4)C(=O)C32)cc1 (centres undefined) >= -0.6
-- reply t

* * *

- test protocol: basal MM1S mitochondrial membrane potential changes, profiling panel, cell-based, JC-1 fluorescence, 24 h, 100 nL compound (AID 1170); note: test concentration not given here
- experimental setup: higher = more signal
Please note: 1 (yes) applies when z-score is -0.008 or greater, and 0 (no) applies otherwise.

Past entries and their recorded results:
>>> assigned_label("CCOC(=O)C[C@H]1[C@H](OC(=O)Cc2ccc3c(c2)OCO3)[C@@H](NC(=O)C2CCCCC2)c2cc(OCCCO)ccc2N1C(=O)Cc1ccc(OC)cc1")
"0 (no)"
>>> assigned_label("COCCOC(=O)N1C(=O)[C@@]2(c3cc(C#CCC(C(=O)OC)C(=O)OC)ccc31)[C@H](C(=O)N1CCCCCCC1)[C@H]1C(=O)O[C@H](c3ccccc3)[C@H](c3ccccc3)N1[C@@H]2c1ccc(OCCO)cc1")
"0 (no)"
>>> assigned_label("CC(C)Cc1ccc(CN2CC[C@@H](NS(=O)(=O)c3ccccc3)C2)cc1")
"0 (no)"
>>> assigned_label("CCOC(=O)C1=CCC(C(C)(C)C)N(S(=O)(=O)c2ccc(C)cc2)C1 (configuration not stated)")
"0 (no)"
>>> assigned_label("N#Cc1ccc(NN2C(C(O)c3ccc([N+](=O)[O-])cc3)C=CC3C(=O)N(c4ccccc4)C(=O)C32)cc1 (configuration not stated)")
"1 (yes)"

-- ask # bool: z-score of C=CCC(OC(C)=O)[C@@H]1[C@@H](N(Cc2ccc(-c3ccccc3)cc2)C(=O)Cc2ccc(OC)cc2)c2cc(OCCCO)ccc2N1C(=O)c1ccc2ccccc2n1 (some centres not stated) >= -0.008
-- reply 1 (yes)
